assay: differential killing of epithelial or mesenchymal cells, primary screen, imaging, PC-3E GFP, TEM4-18 mCherry, co-culture (AID 1345086); conditions: imaging cell counts, at 1 µM, actives lie on both sides, counts scaled to control wells, 1 = unselective;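 note: normalised mesenchymal count divided by normalised epithelial count so high means epithelial killing; cells exposed to compound for 72 h before imaging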
red/green cell ratio (normalised) strictly less than 0.9 = fulfilled. Otherwise not fulfilled.

# Compound, Class Assignment
measured = [
    ("CC(=O)N[C@@H]1[C@@H](O)[C@H](O)[C@@H](CO)O[C@H]1O", "not fulfilled"),
    ("C=CC1=C(C(=O)O)N2C(=O)[C@@H](NC(=O)/C(=N\\O)c3csc(N)n3)[C@H]2SC1 (stereo in doubt)", "not fulfilled"),
    ("Cc1cc(O)c(C=O)c2c1C(=O)Oc1c(C)c(O)c3c(c1O2)C(O)OC3=O (stereo not given)", "not fulfilled"),
    ("NCC(O)CC(=O)O (stereo not given)", "fulfilled"),
    ("COC(=O)c1c(C)cc(OC(=O)c2c(C)cc(O)c(C=O)c2O)c(C)c1O", "fulfilled"),
]

###

molecular target: 6-phosphogluconate dehydrogenase, decarboxylating (Homo sapiens) (UniProt P52209); test: 6PGD enzyme inhibitors, primary screen, biochemical, human, recombinant enzyme, NADPH absorbance (AID 1159550); conditions: recombinant 6PGD, NADPH absorbance 341 nm; at 10 µM; stronger effect = higher value
Sequence (P52209 whole entry, looked up): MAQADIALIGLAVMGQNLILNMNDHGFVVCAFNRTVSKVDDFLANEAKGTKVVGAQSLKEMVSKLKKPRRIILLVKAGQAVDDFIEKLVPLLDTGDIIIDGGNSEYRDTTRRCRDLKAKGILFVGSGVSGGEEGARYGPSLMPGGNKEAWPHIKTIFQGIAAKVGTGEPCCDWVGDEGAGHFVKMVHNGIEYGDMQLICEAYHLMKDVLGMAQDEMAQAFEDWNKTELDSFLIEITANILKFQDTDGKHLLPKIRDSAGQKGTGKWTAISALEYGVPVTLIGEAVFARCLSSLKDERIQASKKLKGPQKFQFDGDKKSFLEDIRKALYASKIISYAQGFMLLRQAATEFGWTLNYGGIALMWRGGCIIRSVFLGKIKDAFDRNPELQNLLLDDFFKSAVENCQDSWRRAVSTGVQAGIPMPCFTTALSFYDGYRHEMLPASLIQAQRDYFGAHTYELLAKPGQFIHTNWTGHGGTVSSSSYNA
Quick reference for inhibition among some compounds

# Compound, Endpoint Unit, inhibition
data = [
    ("CCCCCCCCCc1ccc(OCCOCCOCCOCCOCCOCCOCCOCCOCCO)cc1", "%", -15.2),
    ("COC(=O)[C@H]1[C@H]2C[C@H]3c4[nH]c5ccccc5c4CCN3C[C@H]2CC[C@@H]1O", "%", -0.247),
    ("CC(C(=O)O)c1cccc(Oc2ccccc2)c1 (configuration not stated)", "%", 15.8),
    ("O=C(O[C@@H]1Cc2c(O)cc(O)cc2O[C@@H]1c1cc(O)c(O)c(O)c1-c1c([C@H]2Oc3cc(O)cc(O)c3C[C@H]2O)cc(O)c(O)c1O)c1cc(O)c(O)c(O)c1", "%", 1.5),
    ("Cn1c(=O)[nH]c(=O)c2[nH]cnc21", "%", 5.61),
    ("O=C(/C=C/c1ccc(O)c(O)c1)OCCc1ccccc1", "%", 14),
    ("O=C1C=CC2=C3c4cc(O)c(O)cc4CC3(O)COC2=C1 (configuration not stated)", "%", 4.16),
    ("CC(C)=CCC[C@@H](C)[C@H]1CC[C@@]2(C)C3=C(CC[C@]12C)[C@@]1(C)CC[C@H](O)C(C)(C)[C@@H]1CC3", "%", 14.5),
    ("COc1c(-c2coc3cc4c(cc3c2=O)CC(OC(C)=O)C(C)(C)O4)ccc2c1C=CC(C)(C)O2 (configuration not stated)", "%", 13.9),
    ("Cc1ccc(O)cc1", "%", -1.83),
    ("CC1(C)Oc2ccc3ccc(=O)oc3c2C[C@H]1O", "%", 1.49),
    ("CCOC(=O)CCC(=O)O[C@H]1[C@H](O[C@@H]2[C@@H](C)[C@H](O[C@H]3C[C@@](C)(OC)[C@@H](O)[C@H](C)O3)[C@@H](C)C(=O)O[C@H](CC)[C@@](C)(O)[C@H](O)[C@@H](C)C(=O)[C@H](C)C[C@@]2(C)O)O[C@H](C)C[C@@H]1N(C)C", "%", -8.96),
]

###

Quick reference for inhibition among some molecules
assay: HTB85 osteosarcoma cell growth inhibition, synergistic combos for chromothripsis tumors, BGB or cisplatin IC20 combos (AID 1671453); conditions: HTB85 osteosarcoma cells, drug combinations, measured here: with cisplatin IC20, at 5 µM, stronger effect = higher value;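 note: cells exposed for 96 hours before readout; 0% = vehicle DMSO and 100% = high DMSO killing control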
Endpoint Label: inhibition (%)

# Molecular String, Endpoint Label, Test Result
records = [
    ("C[C@@H](CN1CC(=O)NC(=O)C1)N1CC(=O)NC(=O)C1", "inhibition", -43.4),
    ("CN1CCN(c2c(F)cc3c(=O)c(C(=O)O)cn4c3c2OCN4C)CC1", "inhibition", -29.4),
    ("O=c1cc[nH]c(=O)[nH]1", "inhibition", -33.2),
]

###

experiment: differential killing of epithelial or mesenchymal cells, primary screen, imaging, PC-3E GFP, TEM4-18 mCherry, co-culture (AID 1345086); settings: imaging cell counts, at 1 µM, actives lie on both sides, counts scaled to control wells, 1 = unselective;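 note: normalised mesenchymal count divided by normalised epithelial count so high means epithelial killing; cells exposed to compound for 72 h before imaging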
Quick reference for red/green cell ratio (normalised) among some compounds
Endpoint Label: red/green cell ratio (normalised)

# Compound, Test Result
records = [
    ("Cc1cc(O)c(C)c(O)c1C(=O)O", 0.88),
    ("COc1cccc(-c2cc(=O)c3ccc(OC)cc3o2)c1", 1.01),
    ("CCCCCCCCCCCCCCCCCCCCCCO", 1.1),
    ("CN(C)c1nc(N(C)C)nc(N(C)C)n1", 1.11),
    ("COc1cccc2c1C(=O)c1c(O)c3c(c(O)c1C2=O)C[C@@](O)(C(C)=O)C[C@@H]3O[C@H]1C[C@H](N)[C@H](O)[C@H](C)O1", 2.72),
    ("CN1C(=O)CC[C@H]1c1cccnc1", 1.08),
    ("CC(=O)Oc1ccc2c(c1OC(C)=O)OCC1(O)Cc3c(cc(OC(C)=O)c(OC(C)=O)c3OC(C)=O)C21 (configuration not stated)", 0.84),
    ("COc1ccc2c(c1)OC[C@@H](Cc1ccc(OC)c(OC)c1)[C@@H]2O", 0.93),
    ("O=C(Oc1ccccc1C(=O)O)c1ccccc1O", 1.15),
    ("CCC(C(=O)O)c1ccccc1 (configuration not stated)", 1.07),
    ("OCc1ccccc1O[C@@H]1O[C@H](CO)[C@@H](O)[C@H](O)[C@H]1O", 0.91),
    ("CC[C@H]1OC(=O)[C@H](C)[C@@H](O[C@H]2C[C@@](C)(OC)[C@@H](O)[C@H](C)O2)[C@H](C)[C@@H](O[C@@H]2O[C@H](C)C[C@H](N(C)C)[C@H]2O)[C@](C)(O)C[C@@H](C)/C(=N\\OCOCCOC)[C@H](C)[C@@H](O)[C@]1(C)O", 1),
]

###

assay: stimulators of nuclear beta-catenin in C2C12, primary screen, imaging, WNT3A-conditioned medium, mouse C2C12, NPC library (AID 1117326); conditions: at 10 µM, stronger effect = higher value
Quick reference for nuclear beta-catenin stimulation among some molecules

# Molecular String, nuclear beta-catenin stimulation (%)
records = [
    ("Cc1c(N)cccc1C(F)(F)F", 0.9),
    ("NS(=O)(=O)c1cc(C(=O)O)cc(N2CCCC2)c1Oc1ccccc1", 0.5),
    ("O=C(CCCl)NCc1ccccc1", 0.5),
    ("NC(N)=NCCC[C@H](N)C(=O)O", -0.2),
    ("CN1CCC[C@@H]1Cc1c[nH]c2ccc(CCS(=O)(=O)c3ccccc3)cc12", 1.8),
    ("C[N+](C)(C)CCCCCCCCCC[N+](C)(C)C", -0.1),
    ("Cc1nnc(C(=O)NC(C)(C)c2nc(C(=O)NCc3ccc(F)cc3)c(O)c(=O)n2C)o1", -0.2),
    ("COc1cc(/C=C/C(N)=O)cc(OC)c1OC", 1.1),
    ("COc1nccnc1NS(=O)(=O)c1ccc(N)cc1", 1.5),
    ("Cc1ncc(C[n+]2csc(CCO)c2C)c(N)n1", -1.9),
    ("CCC(=O)c1ccc(O)cc1", 2.6),
]

###

Quick reference for tube area decrease among some compounds
test: inhibition of endothelial tube formation, primary screen, imaging, VEGF stimulated, CD31 staining, tube area, NPC library (AID 1117340); conditions: VEGF-stimulated ADSC/ECFC co-culture, at 10 µM, stronger effect = higher value
Calls of active or inactive are those of the source.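 How the source made its calls: active means compound that reduces growth-factor-driven endothelial tube area in a mixed cell culture, no cutoff stated; inactive means the rest.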

# Compound, tube area decrease
records = [
    ("CC(C)(C)c1ccc(C(O)CCCN2CCC(C(O)(c3ccccc3)c3ccccc3)CC2)cc1 (stereo not drawn)", "98.4% (active)"),
    ("O=c1cc[nH]c(=O)[nH]1", "-14.5% (inactive)"),
    ("O=c1[nH]c(=O)n([C@H]2C[C@H](O)[C@@H](CO)O2)cc1I", "69.4% (active)"),
]

###

Quick reference for mean signal among some molecules
test: modulation of C. elegans fzo-1 (AID 1259413);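 note: fzo-1 mutant C. elegans worms in liquid wells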; details: C. elegans fzo-1 modulator screen, mean read-out; stronger effect = higher value
Endpoint Label: mean signal

# Molecule, Test Result
records = [
    ("Nc1ncnc2c1ncn2[C@@H]1O[C@H](CO)[C@@H](O)[C@@H]1O", 237),
    ("O=C(O)COCCN1CCN(C(c2ccccc2)c2ccc(Cl)cc2)CC1 (stereo not given)", 254),
    ("CC1=C(/C=C/C(C)=C/C=C/C(C)=C\\C(=O)O)C(C)(C)CCC1", 236),
    ("CC1(C)S[C@@H]2[C@H](NC(=O)[C@H](N)c3ccc(O)cc3)C(=O)N2[C@H]1C(=O)O", 239),
    ("Nc1ccn([C@@H]2O[C@H](CO)[C@@H](O)C2O)c(=O)n1 (stereo not given in full)", 259),
    ("COc1c2occc2cc2ccc(=O)oc12", 248),
    ("CCc1ccc(CCOc2ccc(CC3SC(=O)NC3=O)cc2)nc1 (stereo not given)", 259),
    ("COC(=O)C1=C(C)NC(C)=C(C(=O)OC)C1c1ccccc1[N+](=O)[O-]", 242),
    ("COc1ccc(-c2cc(=O)c3c(OC)c(OC)c(OC)c(OC)c3o2)cc1OC", 277),
    ("Cn1cc[nH]c1=S", 225),
]
